B1: Segment polarity protein dishevelled homolog DVL-3, residues 2 to 81; numbered along this chain, Q92997 (parent)
chain: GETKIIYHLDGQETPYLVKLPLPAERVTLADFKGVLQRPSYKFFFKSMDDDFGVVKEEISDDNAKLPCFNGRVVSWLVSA

- Variants of: B1
- test_protocol: abundance fitness (aPCA) (normalised: wild type 0, dead -1); higher = more abundant; growth selection in yeast, the domain comes from the species named
- setup_conditions: Homo sapiens
Documented abundance fitness across a set of variants

// worked examples, abundance fitness included
primary_sequence	abundance fitness
GETKIIYHLDGQETPYLVKLPLPAERVTLADFKGVLQRPSYKFFFKSMDDDFGVVKEEISDDNAKLPCFNGRVVSWCVSA [L77C]	-0.29
GETKIIYHLDGQETPYLVKLPLPAERVTLADFKGVLQRPSYKFFFKSMDDDFGVVKEEISDDNAKVPCFNGRVVSWLVSA [L66V]	-0.864
GETKIIYHLDGQETPYLVKLPLPAERVTLADFKGVTQRPSYKFFFKSMDDDFGVVKEEISDDNAKLPCFNGRVVSWLVSA [L36T]	-0.824

Input GETKIIYHLDGQETPYLVKLPLPAERVTLADFKGVLQRPSRKFFFKSMDDDFGVVKEEISDDNAKLPCFNGRVVSWLVSA [Y41R] . Output abundance fitness: -0.741

Input GETKIIYHLDGQETPYLVKLPLPAERVTLADFKLVLQRPSYKFFFKSMDDDFGVVKEEISDDNAKLPCFNGRVVSWLVSA [G34L] . Output abundance fitness: -0.119

Input GETKIIYHLDGQETPYLVKLPLPAERVQLADFKGVLQRPSYKFFFKSMDDDFGVVKEEISDDNAKLPCFNGRVVSWLVSA [T28Q] . Output abundance fitness: -0.811

Input GETKIIYHLDGQETPYLVKLPLPAERVTLADFKGVLQRPSYKFFFKSMDDDFGVVKEEISDDNAKLPCFNGRVVSWLVSF [A80F] . Output abundance fitness: -0.098

Input GETKIIYHLDGQETPYLVKLPLPAERVTLKDFKGVLQRPSYKFFFKSMDDDFGVVKEEISDDNAKLPCFNGRVVSWLVSA [A30K] . Output abundance fitness: 0.007

Input GETKIIYHLDGQETPYLVKLPLPAERVTLADFKGVLQRPSYKFFFKSMDDDFGVVKEEISDDNAKCPCFNGRVVSWLVSA [L66C] . Output abundance fitness: -0.923

Input GETKIIYHLDGQETPYLVKLPLPAERVTLADFKRVLQRPSYKFFFKSMDDDFGVVKEEISDDNAKLPCFNGRVVSWLVSA [G34R] . Output abundance fitness: 0.156

Input GETKIIYHLDGQETPYLVKLPLPAERVTLADFKGVLQRPSYKFFFKSMQDDFGVVKEEISDDNAKLPCFNGRVVSWLVSA [D49Q] . Output abundance fitness: -0.053

Input GETKIIYHLDGQETPYLVKLPLPAERVTLADFKGVLQRPSYKFFFKSMDDDFGVVKEEISDDNAKLPCFNGRVVSWLVSC [A80C] . Output abundance fitness: -0.015
